apparent KD of MS2 coat protein: recorded values
Test system: MS2 coat protein
PROTOCOL: apparent KD of MS2 coat protein; designed switch direction (-1 OFF switch, 1 ON switch): -1; higher = weaker reporter binding
MEASUREMENT SETUP: input ligand: FMN 200 uM
Report only the number, with the unit nM understood.

GCUUGAGCAGGAUAUACAAUGAGCUUGAGAAAUCGAGUUCGACAUGAGGAUCACCCAUGUAGAAGGGUUCGAGU [-27.3, -25 kcal, A 31% 1 and 1bis] (Eterna round: R97, puzzle: Exclusion 2) : 38.4
GCAUGAAUGUAGGAUAUCUGUAGGGCCCGGACCAGAGAAGGACGCACAUGAGGAUCACCCAUGUCUUGAUGAUC [Eternabot (L1) Solution 15] (Eterna round: R97, puzzle: Exclusion 6) : 540

// query # get_value(readout='apparent KD of MS2 coat protein', item= GUAAACGAAGAGGAUAUUUGAUAUCAUAGCUUCAAAGAAGGCUUCACAUGAGGAUCACCCAUGUGAUCUUCAAG [Mat - Exclusion 6 - JL Mod - D21] (Eterna round: R97, puzzle: Exclusion 6) )
// result 199

// query # get_value(readout='apparent KD of MS2 coat protein', item= CGUCUGUAAGGAUAUGGUUGCAUCAACAUGAGGAUCACCCAUGUAACUUGGGACUAGUGAUUAGAAGGUACGAACG [EX5 #59] (Eterna round: R97, puzzle: Exclusion 5) )
// result 218

// query # get_value(readout='apparent KD of MS2 coat protein', item= GUGCCGCGAGGAUAUACAGACGGGUCCAUUACGUGUCUCGGACUUGAGGAUCACCCAAGUAGAAGGCGUCUCAG [salish99_ex2_r4_625] (Eterna round: R97, puzzle: Exclusion 2) )
// result 51.3

// query # get_value(readout='apparent KD of MS2 coat protein', item= UUCCGACAUGAGGAUCACCCAUGUAAGGAUAUGCACUAGAGGACAAACCCUCUUAACGGCAGAAGGUGCAGGGA [Solaleisra] (Eterna round: R97, puzzle: Exclusion 1) )
// result 40.9

// query # get_value(readout='apparent KD of MS2 coat protein', item= UACAUGAGGAUCACCCAUGUUUUGUCGUGUAUGGUAUUUAUCUAGGAUAUCAAUCUAUUUAUUUAUGAGAAGGAGAAUAUUAAU [JMF's solution 13] (Eterna round: R96, puzzle: Exclusion NG 3) )
// result 39.6

// query # get_value(readout='apparent KD of MS2 coat protein', item= GGUUGGCGAGGAUAUACAUGAGGAUCACCCAUGUGGUCCUGUGGCUGAUCAAGCCUAUGUAGAAGGCGCAAAUC [salish99_ex3_r4_012] (Eterna round: R97, puzzle: Exclusion 3) )
// result 137

// query # get_value(readout='apparent KD of MS2 coat protein', item= CCCAGUUAGUGAGGAUAUCUUACAUGAGGAUCACCCAUGUAAUAAAUGAGGAUUUCGGGUGUCUAAGAGAAGGCACGGAUAGGC [Ostracism 25 - Jieux - Exclusion NG 2] (Eterna round: R96, puzzle: Exclusion NG 2) )
// result 27.1

---

Test system: MS2 coat protein
PROTOCOL: apparent KD of MS2 coat protein; designed switch direction (-1 OFF switch, 1 ON switch): -1; higher = weaker reporter binding
MEASUREMENT SETUP: input ligand: microRNA oligo, concentration not stated
MEASUREMENT KIND: apparent KD of MS2 coat protein (nM)
Report only the number, with the unit nM understood.

Example entries and their recorded answers appear below.
UUUAGUUCAGGAUAUGUAGAUUUUAACAUGAGGAUCACCCAUGUAGAUCCUGAAUUAACUACAGAAGGGAACAUUC [Exclusion 5: 2:c] (Eterna round: R96, puzzle: Exclusion 5) : 15.6
AGCCGGUCGUGAGGAUAUUACAUGAGGAUCACCCAUGUCGACGGGCUACGGGCGGUCGGCUCGUGUGAGAAGGCGCGCCCGGAA [Tibibiza] (Eterna round: R96, puzzle: Exclusion NG 2) : 8.33
CAAAGUUGGUAAGGAUAUCCUACAUUAUUCUGACCCGUGCAAGCUACAUGAGGAUCACCCAUGUGGGAGAAGGUGCGUUAAAGU [Design 3] (Eterna round: R96, puzzle: Exclusion NG 2) : 17.4

Here is the next item to consider.
// query # get_value(readout='apparent KD of MS2 coat protein', item= AUGUGAUUGGCUCUGAGACAUGAGGAUCACCCAUGUGGAGCGCAGGAUAUCCGAACCGUGAAGGCGGAGAAGGGCGUCGUGGUA [Zasorequer] (Eterna round: R96, puzzle: Exclusion NG 3) )
// result 20.5

---

System: MS2 coat protein
PROTOCOL: apparent KD of MS2 coat protein; designed switch direction (-1 OFF switch, 1 ON switch): 1; higher = weaker reporter binding
MEASUREMENT SETUP: Eterna round: R95; input ligand: FMN 200 uM
Threshold rule: apparent KD of MS2 coat protein greater than or equal to 20 nM is Criterion met; below that, Criterion not met.

Here are 4 sequences together with their reported answers.
ACGCAGCUGGGUGAGGAUAUCGGUGGUACAACAUGAGGAUCACCCAUGUCCGAAGCUCGGACCUCCGAGAAGGCGCCCGGCUGCG [Soinraesar Omei Mod 2] (puzzle: Same State 2) : Criterion not met
AAGGGAUGAGCGUAGGAUAUAGGAGAAGUGACAUGAGGAUCACCCAUGUAGGAGGAGGGAUGAGACUAGAAGGACGAGGUAGGAG [JR_SS2_Sub060] (puzzle: Same State 2) : Criterion met
AUUUAACAAGCUUUUUGCUCGUCUUAUAAACAUGAGGAUCACCCAUGUAAUAGCGUGAGAGUAAAUAUUUAAAUAAU [JMF 93] (puzzle: Sensor for hsa-mir-208a) : Criterion not met
ACCCAAAGUAUAUGGGAGCAAGCUUUUUAACAUGAGGAUCACCCAUGUACUCGUCUUAUAAGCAGUCGAAAGACUGC [Sensor 100 - 4] (puzzle: Sensor for hsa-mir-208a) : Criterion met

Moving on to the next sequence.
// query Does GUGCAACCGUGUGAGGAUAUCGGUGAAUAAACAUGAGGAUCACCCAUGUCCGAAGCUCGGUUCUCCGAGAAGGCGCACAGUUGCA [Same State 2 - Mod of Erisin v.4] (puzzle: Same State 2) have a reported apparent KD of MS2 coat protein of at least 20 nM?
// result Criterion met

---

Tested on: K4 kissing-loop RNA reporter
PROTOCOL: apparent KD of K4 kissing-loop reporter; higher = weaker reporter binding
MEASUREMENT SETUP: Eterna round: R107; input ligand: theophylline 20 uM
apparent KD of K4 kissing-loop reporter: recorded values
Report only the number, with the unit nM understood.

// query Observed apparent KD of K4 kissing-loop reporter on K4 kissing-loop RNA reporter for GUAGGAUGAGGAGGAGGAUGAAUUACUGAAGGAGCGCAUAUUUUUGCAGGUAGGUCGCGGUAAAGAAGUAUAGUGAUGUUAUAUA [SSArgA.J] , please.
// result 624

// query Observed apparent KD of K4 kissing-loop reporter on K4 kissing-loop RNA reporter for GCGUCAUCGAAAGGAUAUGGAGUAGUGAUGUUGAUCCAUAUGCUCACGCAUAGCCGAGAACAUCGACCAGAAGGUUCAAGAACUG [theeternabot_exclusion_KL_FMN_B_41] , please.
// result 520

// query Observed apparent KD of K4 kissing-loop reporter on K4 kissing-loop RNA reporter for CAUGGACUUCCAGUGUAUCCAUGACUGGAUACCAGUCAGGAAACUGACCCUUGGCAGCCAGAACUGGAAGUGAUGUUUCCAGUAA [Design8] , please.
// result 244

---

apparent KD of K4 kissing-loop reporter: recorded values
Tested on: K4 kissing-loop RNA reporter;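 also: bound reporter read as fluorescence of individual clusters on recovered sequencing chips by microscopy, with normalized cluster intensities fitted with a binding model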
PROTOCOL: apparent KD of K4 kissing-loop reporter; higher = weaker reporter binding
MEASUREMENT SETUP: Eterna round: R107; input ligand: FMN 200 uM
Report only the number, with the unit nM understood.

Example entries and their recorded answers appear below.
AAUGUACAAGUGAUGUUUGUACUUUCCGAAGGAGCGUCUAAUAAGACAGGUAGGUCGCGGAUUAUCAUAAUUAUCAGGUUUUCAA [JR_SSArginiA_Sub015] : 98.8
UGGACCUGACUCGAUAAGAGUCAAUGAGAUACCAGUGACGAAAGUCACCCUUGGCAGCUCACUGCCAGUGAUGUUGGUAGGUCCU [#SwitchBubble 3 #StaticStem] : 1250
UAGUAGUAGCGAGGAUAUGCAAUAGGCGAGUGAUGUUCGCCAGGCGGGCGUCGCAUAUAAGAAAGAGCAGAAGGCGCUAGGUAGA [SameState - FMN B / A] : 814
UUUAUAUAGUCGGCCGCCACUGAUUUUUAUAUAUGUUUAUGUUUAUACGAGUGAUGUUCGUUAUUCAGGACCGGGACUUUUGUUA [JR_SSTryptoB_Sub016] : 108
UGCGCUGUGUACUGAAAUGUUCUGCGGGAUACCAGAGUCUUUUUAUUCCCUUGGCAGCUUGAGUGAUGUUUGAUGCCGUUCUUGU [tffeymullin] : 494

Here is the next item to consider.
// query # get_value(readout='apparent KD of K4 kissing-loop reporter', item= UGAUACCAGACGGCCGCCACUUCUGCAAGUCAAAGACUUGCCAAGGGAAUCGUCCAGUGAUGUUGGAGGACCGGGUCUGGUAUCU [FiskerMod 3 - Jieux - Exclusion - Tryptophan B] )
// result 880
